B1: Phosphoglycerate kinase, P00560 (parent)
chain: MSLSSKLSVQDLDLKDKRVFIRVDFNVPLDGKKITSNQRIVAALPTIKYVLEHHPRYVVLASHLGRPNGERNEKYSLAPVAKELQSLLGKDVTFLNDCVGPEVEAAVKASAPGSVILLENLRYHIEEEGSRKVDGQKVKASKEDVQKFRHELSSLADVYINDAFGTAHRAHSSMVGFDLPQRAAGFLLEKELKYFGKALENPTRPFLAILGGAKVADKIQLIDNLLDKVDSIIIGGGMAFTFKKVLENTEIGDSIFDKAGAEIVPKLMEKAKAKGVEVVLPVDFIIADAFSADANTKTVTDKEGIPAGWQGLDNGPESRKLFAATVAKAKTIVWNGPPGVFEFEKFAAGTKALLDEVVKSSAAGNTVIIGGGDTATVAKKYGVTDKISHVSTGGGASLELLEGKELPGVAFLSEKK

Variants of: B1
Settings: Saccharomyces cerevisiae (strain ATCC 204508 / S288c); pH 7.5; 25 °C; GdnHCl; Fluorescence; Sodium phosphate 20 mM; structure 3PGK; whole UniProt chain shown
Entries and their measured denaturant midpoint (higher = more stable) follow.
measured_quantity: denaturant midpoint (higher = more stable)

1) Y49W W309Y: 0.54 M
2) L400W: 0.39 M
3) W309Y: 0.64 M
4) W334Y: 0.62 M

Hey, just so you know, these numbers are from FireProtDB (doi:10.1021/bi00042a027).
